- EXPERIMENT: RP, Waters ACQUITY UPLC BEH C18, 100 × 2.1 mm, 1.7 µm; A: water + 0.1% formic acid, pH 3; B: 80% acetonitrile + 20% acetone + 0.1% formic acid, pH 3; gradient (min/%B) 0/0 6/100
- TEST_CONTEXT: stereoisomer not certain
MEASURE_NAME: LC retention time (min)
The reply should contain only the number, in min.

Look over these answered cases.
MOLECULE	NUMBER
CC(CCC(=O)NCC(=O)O)C1CCC2C3CCC4CC(O)CCC4(C)C3CC(O)C12C (configuration not stated)	3.46
CCC(C)C(NC(=O)C1CCC(=O)N1)C(=O)O (configuration not stated)	1.83
CC1(O)CCOC(=O)C1 (configuration not stated)	1.38
CCC(=O)OC(CC(=O)[O-])C[N+](C)(C)C (configuration not stated) [propionylcarnitine chloride]	1.35
COc1cc(C=O)ccc1O	2.03
CC(=O)NC(Cc1ccc(O)cc1)C(=O)O (configuration not stated)	1.53

Q: Which LC retention time value belongs to CC(C)CC(N)C(=O)NC(CC(=O)O)C(=O)O (configuration not stated) ?
A: 0.6

Q: Try this molecule next: O=C(O)CC(NC(=O)C1CCC(=O)N1)C(=O)O (configuration not stated)
A: 0.6

Q: O=C(O)C1CC(O)CN1 (stereo not drawn) [trans-4-hydroxy-l-proline] ?
A: 0.577

Q: Moving on to CC12C=CC(=O)C=C1CCC1C2C(O)CC2(C)C1CCC2(O)C(=O)CO (configuration not stated)
A: 2.65

Q: Also, `O=C(O)CNC(=O)C=Cc1c[nH]c2ccccc12` please.
A: 2.13

Q: # iterate: Nc1ccccc1C(=O)CC(N)C(=O)O (configuration not stated)
A: 1.34

Q: Param item: CCC(C)C(N)C(=O)NC(CC(=O)O)C(=O)O (configuration not stated)
A: 0.6

Q: Then this molecule: NC(CCCNC1=NCC(=O)N1)C(=O)O (configuration not stated)
A: 0.561

Q: Also O=C(O)CCC1NC(=O)C(CC(=O)O)NC1=O (configuration not stated) ?
A: 0.884

Q: Param item: CC(C)C(NC(=O)C1CCC(=O)N1)C(=O)O (configuration not stated)
A: 1.57

###

- EXPERIMENT: RP, Waters ACQUITY UPLC HSS T3, 100 × 2.1 mm, 1.8 µm; A: water + 0.1% formic acid, pH 3; B: 30% methanol + 70% acetonitrile + 0.1% formic acid, pH 3; gradient (min/%B) 0.0/5 1.0/8 2.0/15 3.0/40 4.0/70 4.5/100 5.0/100 6.4/100 6.6/5.0 6.8/5.0 7.0/5.0
- TEST_CONTEXT: stereoisomer not certain
MEASURE_NAME: LC retention time (min)
Response body: numeric value in min, unit text excluded.

Worked cases, LC retention time given:
COMPOUND	LC retention time (min)
O=C(O)c1ccc[nH]1	2.61
NCCc1ccc(O)c(O)c1	0.712

Q: Any idea what LC retention time was measured for CC(C)C1NC(=O)C2CCCN2C1=O (centres undefined) ?
A: 3.1

Q: Record: NCCC(=O)NC(Cc1cnc[nH]1)C(=O)O (centres undefined)
A: 0.437

Q: Param item: `CC(C)C(=O)C(=O)O`
A: 1.92

Q: Another compound to look at: `O=c1cc(-c2ccc(O)c(O)c2)oc2cc(O)cc(O)c12`
A: 3.75

The reported numbers originate from the RepoRT retention time repository (doi:10.1016/j.aca.2011.12.065).
